target: T1, recombinant human PCSK9 (human, UniProt Q8NBP7 31-692); assay: competition ELISA; antibody blocks biotinylated PCSK9 binding to immobilized recombinant LDLR extracellular domain
T1 construct: also called hPCSK9
T1 sequence (Q8NBP7 31-692 limits assumed): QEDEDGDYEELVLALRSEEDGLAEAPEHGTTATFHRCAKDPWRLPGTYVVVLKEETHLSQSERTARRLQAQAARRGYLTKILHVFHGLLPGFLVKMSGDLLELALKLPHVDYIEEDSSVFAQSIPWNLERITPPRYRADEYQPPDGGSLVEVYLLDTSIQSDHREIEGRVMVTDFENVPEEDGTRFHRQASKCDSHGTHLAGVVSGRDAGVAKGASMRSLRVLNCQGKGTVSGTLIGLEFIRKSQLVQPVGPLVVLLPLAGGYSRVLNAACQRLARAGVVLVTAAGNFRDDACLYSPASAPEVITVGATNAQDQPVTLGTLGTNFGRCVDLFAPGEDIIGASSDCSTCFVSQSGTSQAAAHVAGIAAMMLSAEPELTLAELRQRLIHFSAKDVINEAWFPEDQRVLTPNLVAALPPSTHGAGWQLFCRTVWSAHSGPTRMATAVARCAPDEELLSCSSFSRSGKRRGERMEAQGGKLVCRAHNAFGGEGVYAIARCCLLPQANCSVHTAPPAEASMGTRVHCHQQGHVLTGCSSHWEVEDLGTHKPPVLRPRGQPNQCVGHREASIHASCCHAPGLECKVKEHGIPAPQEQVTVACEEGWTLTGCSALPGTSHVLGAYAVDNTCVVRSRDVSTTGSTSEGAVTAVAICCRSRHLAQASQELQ
assay-endpoint: pIC50
pIC50 field: float, defined as -log10 of concentration (mol/L).

pIC50 reading for anti-PCSK9 antagonist monoclonal antibody 6F6 (antibody, V domains shown, Murine full-length IgG from a hybridoma; also called 6F6.G10.3 (subclone); ATCC PTA-8984) VH: EVQLQQSGPELVKPGASVKISCKASGYTFTDYYMNWVKQSHGKSLEWIGDINPNNGGTSYNQKFKGKATLTVDKSSSTAYMELRSLTSEDSAVYYCAGGGIYYRYDRNYFDYWGQGTTLTVSS VL: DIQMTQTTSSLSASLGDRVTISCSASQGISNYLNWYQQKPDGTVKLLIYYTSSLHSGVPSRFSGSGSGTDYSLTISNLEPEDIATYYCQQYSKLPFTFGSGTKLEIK : 8.82

pIC50 reading for anti-PCSK9 antagonist monoclonal antibody 4A5 (antibody, V domains shown, Murine full-length IgG from a hybridoma; also called 4A5.G3 (subclone); ATCC PTA-8985) VH: EVQLQQSGPELVKPGASVKISCKASGYTFTDYYMNWVKQSHGKSLEWIGDINPNNGGTTYNQKFKGKATLTVDKSYSTAYMELRSLTSEDSAVYYCARWLLFAYWGQGTLVTVSA VL: DIVMTQSQKFMSTSVGDRVSVTCKASQNVGTNVAWYQQKPGQSPKALIYSASYRYSGVPDRFTGSGSGTDFTLTISNVLSEDLAEYFCQQFYSYPYTFGGGTKLEIKR : 9.40

pIC50 reading for anti-PCSK9 antagonist monoclonal antibody 7D4 (antibody, V domains shown, Murine full-length IgG from a hybridoma; also called 7D4.4 (subclone); ATCC PTA-8983) VH: EVKLVESEGGLVQPGSSMKLSCTASGFTFSDYYMAWVRQVPEKGLEWVANINYDGSNTSYLDSLKSRFIISRDNAKNILYLQMSSLKSEDTATYYCAREKFAAMDYWGQGTSVTVSS VL: DIVMTQSHKFMSTSFGDRVSITCKASQDVSNALAWYQQKPGHSPKLLIFSASYRYTGVPDRFTGSGSGTDFTFTISSVQAEDLAVYYCQQHYSTPWTFGGGTKLEIKR : 8.82

pIC50 reading for anti-PCSK9 antagonist monoclonal antibody 5A10 (antibody, V domains shown, Murine full-length IgG from a hybridoma; Mouse precursor of L1L3; also called 5A10.B8 (subclone)) VH: QVQLQQPGAELVKPGASVKLSCKASGYTFTSYWMHWVKQRPGQGLEWIGEINPSNGRTNYNEKFKSKATLTVDKSSSTAYMQLSSLTSEDSAVYYCARERPLYAMDYWGQGTSVTVSS VL: DIVMTQSHKFMSTSVGDRVSITCKASQDVSTAVAWYQQKPGQSPKLLIYSASYRYTGVPDRFTGSGSGTDFTFTISSVQAEDLAVYYCQQRYSTPRTFGGGTKLEIKR : 9.40
